Each recorded value in this set is attributed to ChEMBL document CHEMBL1141299.

# test.protocol: Oral bioavailability in human
# setup.conditions: in vivo, F
Measured bioavailability by item
readout.label: bioavailability (%)

CCN1C[C@H](CCN2CCOCC2)C(c2ccccc2)(c2ccccc2)C1=O [(R)-DOXAPRAM]: 61
C[C@]12C=CC(=O)C=C1CC[C@@H]1[C@@H]2[C@@H](O)C[C@@]2(C)[C@H]1CC[C@]2(O)C(=O)COP(=O)(O)O: 82
CCC1=C(C)CN(C(=O)NCCc2ccc(S(=O)(=O)NC(=O)N[C@H]3CC[C@H](C)CC3)cc2)C1=O [GLIMEPIRIDE]: 100
Cc1[nH]c(=O)c(C#N)cc1-c1ccncc1: 92
